Assignment: determine reported kon for the given binders.
- target entity: T1, human CD8αα homodimer, recombinant protein (Acro Biosystems) (human, UniProt P01732 22-182)
- T1 construct: also called CD8αα antigen; biotinylated CD8α recombinant protein (CDA-H82E3)
- T1 sequence (P01732 22-182 limits assumed): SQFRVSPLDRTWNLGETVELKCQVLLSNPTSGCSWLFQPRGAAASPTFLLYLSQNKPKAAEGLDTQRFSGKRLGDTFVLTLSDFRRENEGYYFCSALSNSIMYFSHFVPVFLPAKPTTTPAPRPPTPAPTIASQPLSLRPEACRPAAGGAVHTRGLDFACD
- method description: BLI kinetics, F(ab) on biotinylated CD8α (SA-XT sensor), 1:1 fit, 37 °C [CONT'ED]
Give bare numbers, in M⁻¹ s⁻¹.

Below, each entry is followed by its recorded kon result.
| binder | unit name | test result |
| --- | --- | --- |
| CBD1040 (Fab, V domains shown, also called h1017-H5/L3 F(ab)) VH: QVQLVQSGAEVKKPGASVKISCKASRYTFTDYNLHWVRQAPGQGLEWIGFIYPYNGGTGYAQKFQGRATLTVDYSTSTAYMELSSLRSEDTAVYYCARDHRYNEGVSFDYWGQGTTLTVSS VL: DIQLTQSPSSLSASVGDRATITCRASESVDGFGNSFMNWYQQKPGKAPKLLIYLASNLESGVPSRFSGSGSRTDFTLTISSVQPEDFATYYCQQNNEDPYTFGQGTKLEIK | M⁻¹ s⁻¹ | 14000 |
| CBD1033 Fab (h1017-H2 / h1017-L2) (Fab, V domains shown, Expressed as F(ab) fragment; also called CBD1033 Fab molecule) VH: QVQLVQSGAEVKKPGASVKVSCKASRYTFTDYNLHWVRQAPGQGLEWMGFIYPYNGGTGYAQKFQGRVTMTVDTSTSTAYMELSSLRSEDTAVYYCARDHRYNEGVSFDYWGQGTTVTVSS VL: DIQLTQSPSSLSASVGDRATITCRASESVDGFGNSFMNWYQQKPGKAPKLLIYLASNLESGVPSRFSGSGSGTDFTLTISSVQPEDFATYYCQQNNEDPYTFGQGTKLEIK | M⁻¹ s⁻¹ | 35400 |
| CBD1032 (Fab, V domains shown, also called h1017-H1/L1 F(ab)) VH: QVQLVQSGAEVKKPGASVKVSCKASRYTFTDYNLHWVRQAPGQGLEWMGFIYPYNGGTGYAQKFQGRVTMTRDTSTSTVYMELSSLRSEDTAVYYCARDHRYNEGVSFDYWGQGTTVTVSS VL: DIQMTQSPSSLSASVGDRVTITCRASESVDGFGNSFMNWYQQKPGKAPKLLIYLASNLESGVPSRFSGSGSGTDFTLTISSLQPEDFATYYCQQNNEDPYTFGQGTKLEIK | M⁻¹ s⁻¹ | 33700 |

Prompt line: I have this binder here, CBD1039 (Fab, V domains shown, also called h1017-H5/L2 F(ab)) VH: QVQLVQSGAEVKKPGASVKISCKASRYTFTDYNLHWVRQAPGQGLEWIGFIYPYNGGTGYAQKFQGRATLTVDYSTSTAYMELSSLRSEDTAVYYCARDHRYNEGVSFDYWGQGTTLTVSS VL: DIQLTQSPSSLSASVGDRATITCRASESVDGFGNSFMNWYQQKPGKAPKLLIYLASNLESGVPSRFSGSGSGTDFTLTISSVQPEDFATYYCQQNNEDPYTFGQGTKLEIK , and I need its recorded kon.
Response line: 20200
